Target: h-NK1 receptors (Homo sapiens, UniProt P25103)
Construct: expressed in transfected cells; host or cells: CHO cells (permanent expression), crude cell membranes
Sequence (P25103 whole entry): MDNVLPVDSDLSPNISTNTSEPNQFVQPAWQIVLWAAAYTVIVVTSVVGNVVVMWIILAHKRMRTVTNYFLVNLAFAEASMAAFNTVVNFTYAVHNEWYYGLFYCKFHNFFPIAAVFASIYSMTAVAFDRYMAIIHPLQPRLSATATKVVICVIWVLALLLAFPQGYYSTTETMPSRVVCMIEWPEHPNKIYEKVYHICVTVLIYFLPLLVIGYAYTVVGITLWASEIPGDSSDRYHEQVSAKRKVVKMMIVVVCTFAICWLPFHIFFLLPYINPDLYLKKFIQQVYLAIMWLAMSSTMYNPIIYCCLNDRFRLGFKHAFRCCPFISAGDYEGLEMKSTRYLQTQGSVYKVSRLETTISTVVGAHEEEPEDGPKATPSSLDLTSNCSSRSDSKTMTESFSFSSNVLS
Assay: Evaluation of NK1 antagonist transport efficiency to the central nervous system using a h-NK1 receptor binding assay (brain extract after i.v. dosing of rats)
Conditions: 5 min; compound extracted from brain of male SD rats 5 min after i.v. injection at the dose of 1 mg/kg; CHO cell membranes expressing h-NK1; read-out: inhibition rate of 125I-BH-Substance P binding to h-NK1 receptors
Where a name gives a salt, the structure may show the parent alone.
Observation Type: inhibition at 1 mg/kg

{"Compound": "CN(C)c1cc(C(=O)N2CCN(CC#CCN3CCOCC3(C)C)C[C@H]2Cc2c[nH]c3ccccc23)cc(C(F)(F)F)c1.Cl.Cl [90-(2), dihydrochloride]", "inhibition at 1 mg/kg": "> 80%"}
{"Compound": "COc1ccc(CC2CN(CC#CCN3CCOCC3(C)C)CCN2C(=O)c2cc(C(F)(F)F)cc(C(F)(F)F)c2)cc1C (stereo not drawn) [85-(3), dihydrochloride]", "inhibition at 1 mg/kg": "> 80%"}
{"Compound": "COC[C@H]1CN(CCN2CCN(C(=O)c3cc(C(F)(F)F)cc(C(F)(F)F)c3)[C@H](Cc3ccc(C)c(C)c3)C2)CCO1.Cl.Cl [81-(5), dihydrochloride]", "inhibition at 1 mg/kg": "> 80%"}
{"Compound": "Cl.Cl.O=C(c1cc(C(F)(F)F)cc(C(F)(F)F)c1)N1CCN(C/C=C/c2cccnc2)C[C@H]1Cc1c[nH]c2ccccc12 [56-(2), dihydrochloride]", "inhibition at 1 mg/kg": "> 80%"}
{"Compound": "Cc1ccc(C[C@@H]2CN(CC#CCN3CCOCC(F)C3)CCN2C(=O)c2cc(C(F)(F)F)cc(C(F)(F)F)c2)cc1C (stereo partly drawn) [70-(2), dihydrochloride]", "inhibition at 1 mg/kg": "> 80%"}

Switching to the query record.
Report inhibition at 1 mg/kg under test system h-NK1 receptors (Homo sapiens, UniProt P25103) for CC1(C)COCCN1CCN1CCN(C(=O)c2cc(C(F)(F)F)cc(C(F)(F)F)c2)[C@H](Cc2c[nH]c3ccccc23)C1.Cl.Cl [79-(1), dihydrochloride] . > 80%
